Tested on: RARb:RXRa (NR concentration 270 nM, RXRa partner concentration 90 nM)
Assay: PBM binding z-score (relative to random genomic background probes); higher = stronger binding; sequences stand for … in GC…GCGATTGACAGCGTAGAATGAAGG
quantity.name: PBM binding z-score
Please give the numeric answer without any surrounding text.

{"columns": ["monomer.sequence", "reported.measurement"],
 "data": [
  ["ATCGAAAGGTCGTGAGGTGAGTATCCAGAAAGGC", 3.93],
  ["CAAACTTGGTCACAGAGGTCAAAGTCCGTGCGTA", 4.34],
  ["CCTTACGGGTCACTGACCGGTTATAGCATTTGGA", 3.96],
  ["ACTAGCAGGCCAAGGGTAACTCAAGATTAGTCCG", 0.971],
  ["CCTAGTTGGTCAGGAGGTCACACAGCGGATATGA", 3.81],
  ["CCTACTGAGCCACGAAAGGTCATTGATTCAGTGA", 3.95],
  ["CGGAGTAGGTTATGGGGCATTCAGGCAACGGTGA", 0.965],
  ["AGTCAAAGTTCAGGACGAGGTAACGCAAAGCACG", 4.33],
  ["GTACCAAGGTGAATATGTCGTTGATGAGTAGGCG", 1.22],
  ["CCTAGCAGGCCAATCTGGGTCAGTCAAGGCTTGA", 1.28]
]}

// fetch PBM binding z-score given entry "AGAATGAGGTTATCCGTAGATCAGGGAAGAAAGT" 1.66

Check the records and state PBM binding z-score for "AGAATGAGGTTACCAAAGATCAGGCAAACGCTTG" 2

Give reported PBM binding z-score value for "ATCGAAAGGTCGAGGTGAGTAAAGAGAAAGGGAA" 3.95

###

Test system: RARb homodimer (NR concentration 270 nM)
Test: PBM binding z-score (relative to random genomic background probes); higher = stronger binding; sequences stand for … in GC…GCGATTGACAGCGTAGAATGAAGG
Label criterion met when PBM binding z-score is at or above 3; otherwise label criterion not met.

Worked cases, answers included:
{"columns": ["monomer.sequence", "assigned.class"],
 "data": [
  ["CTCGAAAGGTCGTGCTAAGGTGAGTATACCAAAC", "criterion met"],
  ["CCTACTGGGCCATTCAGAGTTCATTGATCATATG", "criterion not met"],
  ["CCTTACGGGTCACTGAGAGGTTATAGCATTTGGA", "criterion met"]
]}

Tell me whether PBM binding z-score is at least 3 here: "TCTCCGAGGACACGAAAGGTCAGAGCTCGACATC" criterion met

Hi, just wondering whether "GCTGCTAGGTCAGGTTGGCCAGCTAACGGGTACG" shows PBM binding z-score of 3 or higher. criterion not met

Form field: PBM binding z-score at least 3? Entry: "TCTCGGAGGACTCGAAGGTCAGAGCTTTCCAGAG" criterion not met

###

Test system: LXRa homodimer (NR concentration 270 nM)
Experiment: PBM binding z-score (relative to random genomic background probes); higher = stronger binding; sequences stand for … in GC…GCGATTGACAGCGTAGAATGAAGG
quantity.name: PBM binding z-score
# answer = number (no unit)

Before answering, review these 2 worked examples.
{"columns": ["monomer.sequence", "assay.target", "PBM binding z-score"],
 "data": [
  ["ATCGAACGGTCGTGAGGTGAGTATACAGAAAGGC", "LXRa homodimer (NR concentration 270 nM)", -0.243],
  ["TCTTGTAGATCAACAGGATGTTAAGAAAGATCGA", "LXRa homodimer (NR concentration 270 nM)", -0.3]
]}

# input for lookup
Answer with PBM binding z-score of "ACTATTATTTGAGACGAGGGCAACCGATAGGTTG" measured for LXRa homodimer (NR concentration 270 nM). 1.29
